The origin of these recorded values is PubChem BioAssay.

Kindly state composite Z-score for each of the entries shown.
Assay: probe aXIP binding to arrayed compounds – biochemical, NeuroSMM set, 635/667 nm fluorescence, primary screen (AID 1119);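 further: probe is the protein aXip251-270 applied at 1 µg/mL to compound-printed slides; binding of probe to printed compounds measured as 667 nm fluorescence plus signal to noise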
Details: small-molecule microarray, higher = more signal, called active from +8 up or from −8 down
One number for each entry.

                                   molecule  reported
0  CCCCCCCCCCC(O)C1C=CC2C(=O)NC(=O)C2N1Nc1ccccn1 (configuration not stated)    -0.118

Please look at the items below and tell me composite Z-score for each one, in order.
1. C[C@@H]1ON(c2ccccc2)[C@H](c2ccccc2)[C@H]1C(=O)N1C(=O)OC[C@H]1Cc1ccccc1
2. COC(=O)[C@@]1(Cc2ccc(F)cc2)[C@H]2c3cc(C(=O)N(C)C)n(CCSCCO)c3C[C@H]2CN1C(=O)c1ccccc1
3. COc1ccc([Si](C)(C)[C@H]2[C@H](CCO)O[C@@]3(C(=O)N(Cc4cccc(N5CCOC5=O)c4)c4ccccc43)[C@@H]2C)cc1

Out:
1. 0.477
2. 0.116
3. 0.207

Take each entry in turn and give its composite Z-score.
1. CC(C)NC(=O)[C@@H]1c2ccccc2C(=O)N(Cc2cc(C(F)(F)F)cc(C(F)(F)F)c2)[C@H]1c1ccc(CO)cc1
2. COc1ccc([Si](C)(C)[C@@H]2[C@@H](CCO)O[C@]3(C(=O)N(Cc4cccc(N5C(=O)COc6ccccc65)c4)c4ccccc43)[C@H]2C)cc1
3. CC1=C2[C@@H](CCc3ccccc3)OB(O)C[C@@H]2[C@@H]2C(=O)C=CC(=O)[C@@H]2C1

Out:
1: 1.21; 2: 0.215; 3: 1.64

* * *

Test system: XIP peptide (Xip251-270)
Assay: compounds binding XIP fragment 251-270 – biochemical, small-molecule microarray, fluorescence 635/667 nm, 0.5 µg/mL protein, primary screen (AID 1183)
Conditions: fluorescence 635 nm, higher = more signal
property measured: composite z-score

compound	composite z-score
COc1cc(C(O)C2C=CC3C(=O)NC(=O)C3N2Nc2ccc(Cl)cc2Cl)cc(OC)c1OC (centres undefined)	0.619
CN(C)C(=O)[C@@]1(CCC(=O)OC(C)(C)C)N=C(c2ccc(OCCCO)cc2)O[C@H]1c1ccccc1N=[N+]=[N-]	0.825
Cc1ccc(S[C@]2(C(=O)NCc3ccccc3)CC(=O)N(C3Cc4ccccc4C3)[C@@H]2c2ccc(CO)cc2I)cc1	0.23
NCCCCCCNC(=O)[C@H]1C[C@H]2C(=O)N3CCC[C@H]3C(=O)N2[C@H]1c1ccc(O)cc1	0.451
C=CCOC(=O)[C@H]1[C@@H]2C(=O)O[C@@H](c3ccccc3)[C@@H](c3ccccc3)N2[C@@H](c2ccc(OCCOC(=O)[C@H]3C[C@H]4C(=O)N[C@@H](CCCCN(C)C)C(=O)N4[C@H]3c3ccc(O)cc3)cc2)[C@]12C(=O)Nc1ccccc12	0.582

Could you tell me composite z-score for each of these compounds? They are listed below.
1. O=C(O)[C@@]1(Cc2ccccc2)COC(c2ccc(OCCCO)cc2)=N1
2. CC(C)N1C(=O)c2ccccc2[C@](C)(C(=O)O)[C@@H]1c1ccc(CO)cc1

Out:
-0.486
0.0967

* * *

Test: Pseudomonas biofilm growth suppression – PAO1 strain, BacTiter-Glo luminescence, LB-PBS, primary screen (AID 1144)
Settings: P. aeruginosa PAO1 biofilm, 12 h, higher = more signal
Could you label it Yes if measured z-score is -0.1 or higher, and No otherwise?

molecule	class name
CCC[C@@H]1C[C@@]1(CCC)[C@@H](NC(=O)c1cccs1)c1ccc(Cl)cc1	Yes

In: Confirm if z-score reported for the molecule [N-]=[N+]=Nc1ccccc1[C@H]1OC(c2ccc(OCCCO)cc2)=N[C@@]1(Cc1ccccc1)C(=O)NCc1ccccc1 is -0.1 or above.
Out: No

In: Record CC1CC/C=C\[C@H]2OC34C=CCN(Cc5ccccc5)C(=O)[C@H]3N(CCO)C(=O)[C@@H]4C2C(=O)O1 (stereo partly drawn) ; criterion: z-score no lower than -0.1. Met?
Out: Yes

In: # bool: z-score of NCCCCCCNC(=O)[C@H]1C[C@H]2C(=O)N3CCC[C@H]3C(=O)N2[C@H]1c1ccc(O)cc1 >= -0.1
Out: Yes

* * *

Experiment: probe aNOTCH3 binding on compound microarray – biochemical, small-molecule microarray, 635/667 nm fluorescence, primary screen (AID 1120);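 further: probe is a biotin-tagged antibody raised against NOTCH3 rather than NOTCH3 protein; score merges spot fluorescence near 667 nm with spot signal to noise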
Settings: higher = more signal
property measured: composite z-score
Give bare numbers.

Below, 7 compounds whose answers are already recorded.
compound	reported
CCOC(=O)C1=CC[C@@H](c2cccc(Br)c2)N(S(=O)(=O)c2ccc(C)cc2)[C@H]1c1ccc([N+](=O)[O-])cc1	0.0116
COCCOC(=O)N1C(=O)[C@@]2(c3cc(C#CCCO)ccc31)[C@H](C(=O)N1CCc3cc(OC)c(OC)cc3C1)[C@H]1C(=O)O[C@H](c3ccccc3)[C@H](c3ccccc3)N1[C@@H]2c1ccc(OCCO)cc1	0.19
COCCOC(=O)N1C(=O)[C@@]2(c3cc(C#Cc4ccc(OC)cc4)ccc31)[C@H](C(N)=O)[C@H]1C(=O)O[C@H](c3ccccc3)[C@H](c3ccccc3)N1[C@@H]2c1ccc(OCCO)cc1	0.43
CC(C)NC(=O)[C@@]1(Cc2ccccc2I)c2ccccc2C(=O)N(Cc2ccccc2C(F)(F)F)[C@H]1c1ccc(CO)cc1	0.059
CC(C)CNC(=O)[C@@]1(C)c2ccccc2C(=O)N(Cc2ccccc2)[C@H]1c1ccc(CO)cc1	-0.352
OCCCC1=CC(c2cccs2)N(Cc2cccc(OC(F)(F)F)c2)CC1 (stereo not drawn)	-0.147
CCCCC=C[C@@H](NC(=O)CCc1ccccc1)c1ccccc1	0.23

Next item in the queue.
Record C=C(C(=O)CC[C@H](OC(=O)c1cccnc1)c1ccc(OCCO)cc1)C(C)C , field composite z-score: 0.0571

* * *

Test system: Wnt5a (protein binding on small-molecule microarray)
Test: small molecules binding Wnt5a protein – biophysical, small-molecule microarray, 635/667 nm fluorescence, primary screen (AID 1142);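 further: fluorescence read at 667 nm with signal to noise per printed feature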
Conditions: 635 nm fluorescence, higher = more signal
Would you kindly list composite z-score for each of these compounds?

Study these solved cases before continuing.
>>> print(df.to_string())
                                   compound                        measurement_target  reported
0  OCc1ccc(-c2cc[n+](Cc3cccc(OC(F)(F)F)c3)cc2)cc1  Wnt5a (protein binding on small-molecule microarray)     0.252
1  C[N+](C)(C)CCCCCCNC(=O)[C@@H]1C[C@@H]2C(=O)NCC(=O)N2[C@@H]1c1ccc(O)cc1  Wnt5a (protein binding on small-molecule microarray)    0.0508
2  O=C1O[C@H](c2ccccc2)[C@H](c2ccccc2)N2[C@H]1[C@@H](C(=O)NC[C@H](O)c1ccccc1)[C@]1(C(=O)Nc3ccccc31)[C@H]2c1ccccc1OCCO  Wnt5a (protein binding on small-molecule microarray)   -0.0435

composite z-score reported for this compound CCOc1cc(C(O)C2C=CC3C(=O)NC(=O)C3N2Nc2ccccn2)ccc1O (centres undefined) : 0.342

* * *

Assay: probe aCHRDL2 binding to arrayed compounds – biochemical, biotinylated probe, 635/667 nm fluorescence, primary screen (AID 1100)
Conditions: small-molecule microarray, higher = more signal
Label scheme for composite z-score: lower than 1 is label 0, 1 and above is label 1.

compound structure string	class name
COc1ccc(CCNC(=O)[C@@H]2c3ccccc3C(=O)N(Cc3ccccc3)[C@H]2c2ccc(CO)cc2)cc1	label 0

In: Hi team, for C[N+](C)(C)CCCC[C@@H]1NC(=O)[C@@H]2C[C@H](C(=O)NCCCCCNC(=O)CS)[C@H](c3cccc(OCCO)c3)N2C1=O , is the recorded composite z-score at or above 1?
Out: label 0

In: Identify whether the reported composite z-score of the following molecule is 1 or greater: COCCCNC(=O)[C@@]1(Cc2ccccc2)COC(c2ccc(OCCCO)cc2)=N1
Out: label 1

In: Quick check: does COC(=O)[C@]1(Cc2ccccc2CN=[N+]=[N-])N=C(c2ccc(OCCCO)cc2)O[C@@H]1c1ccccc1CN=[N+]=[N-] have composite z-score greater than or equal to 1?
Out: label 0

In: Could you please find out whether C=CCNC(=O)[C@H]1[C@@H]2C(=O)O[C@@H](c3ccccc3)[C@@H](c3ccccc3)N2[C@@H](c2ccc(OCCO)cc2)[C@]12C(=O)N(C(=O)OCCOC)c1ccc(C#CC3=CCCCC3)cc12 has composite z-score that meets 1 or exceeds it?
Out: label 0

* * *

Assay: growth of efflux-deficient E. coli DRC39 – strain DRC39, OD650, 24 h, E. coli filamentation inducers, primary screen (AID 1178);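 further: growth measured as culture turbidity by optical density at 650 nm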
Conditions: E. coli DRC39 acrAB, higher = more signal, called active from +8 up or from −8 down
property measured: z-score
One number for each entry.

Example results:
molecule	property measured	reported
O=C1O[C@H](c2ccccc2)[C@H](c2ccccc2)N2[C@H]1[C@@H](C(=O)N1CCCCCCC1)[C@]1(C(=O)Nc3ccc(C#CCCO)cc31)[C@H]2c1ccc(OCCO)cc1	z-score	0.136
C[C@H]1NC(=O)C([C@@H](C)OCc2ccccc2)NC(=O)[C@@]23C(=O)N[C@@H](Cc4ccccc4)C2[C@H](C)[C@@]2(C)O[C@H]2C3/C=C/CC/C=C/CNC1=O (some centres undefined)	z-score	1.36
CCOc1cc(C(O)C2C=CC3C(=O)NC(=O)C3N2Nc2ccccn2)ccc1O (centres undefined)	z-score	-1.17

From here, focus on the item given below.
Item: NC(=O)[C@@H]1[C@H]2C(=O)O[C@H](c3ccccc3)[C@H](c3ccccc3)N2[C@H](c2ccccc2OCCO)[C@@]12C(=O)Nc1ccc(C#CCCO)cc12 | z-score: 0.386
